Target: mouse MC1R (on murine B16-F1 melanoma cells) (mouse, UniProt Q01727 1-315)
Sequence (Q01727 whole entry): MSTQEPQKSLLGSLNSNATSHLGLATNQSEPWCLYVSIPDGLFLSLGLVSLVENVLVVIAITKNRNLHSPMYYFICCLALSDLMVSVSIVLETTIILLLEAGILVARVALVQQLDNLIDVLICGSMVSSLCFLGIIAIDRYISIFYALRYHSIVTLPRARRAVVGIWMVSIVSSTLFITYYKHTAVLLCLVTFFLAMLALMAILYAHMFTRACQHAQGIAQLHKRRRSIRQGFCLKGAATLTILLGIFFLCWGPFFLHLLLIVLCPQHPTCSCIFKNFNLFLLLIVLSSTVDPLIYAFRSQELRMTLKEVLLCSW
Assay: cell-based or functional assay
[ ]: non-standard residue; d: D form.
readout: EC50, cAMP in B16-F1 cells (nM)
Please reply with the bare figure in nM and do not write the unit itself.

1) VPKGWRXHEXSYS (N-terminal acetyl (Ac); C-terminal amide; D-Cha at 7; D-buthionine at 10; D-isomers at all residues except Gly 4) [peptide 890]    3600
2) VPKGWRFHEMSYS (N-terminal acetyl (Ac); C-terminal amide; L-Arg at 6; D-isomers at all other residues except Gly 4) [peptide 894]    212000
3) Ac-[dV][dP][dK]G[dW][dR][dF][dH][dS][dI][dI][dS][dS]-NH2 (SMILES CC[C@@H](C)[C@@H](NC(=O)[C@@H](CO)NC(=O)[C@@H](Cc1c[nH]cn1)NC(=O)[C@@H](Cc1ccccc1)NC(=O)[C@@H](CCCNC(=N)N)NC(=O)[C@@H](Cc1c[nH]c2ccccc12)NC(=O)CNC(=O)[C@@H](CCCCN)NC(=O)[C@H]1CCCN1C(=O)[C@H](NC(C)=O)C(C)C)C(=O)N[C@@H](C(=O)N[C@H](CO)C(=O)N[C@H](CO)C(N)=O)[C@H](C)CC) [peptide 886]    2
4) VPKGWRFHEMSYS (N-terminal acetyl (Ac); C-terminal amide; L-Trp at 5; D-isomers at all other residues except Gly 4) [peptide 893]    270
5) VPKGWRFHEXSYS (N-terminal acetyl (Ac); C-terminal amide; D-buthionine at 10; D-isomers at all residues except Gly 4) [peptide 878]    130

Shift focus to the following entry.
In: Given SYSMEHXRWGKPV (N-terminal acetyl (Ac); C-terminal amide; L-cyclohexylalanine (L-Cha) at 7, also called analog 892) [peptide 892] , state its recorded EC50, cAMP in B16-F1 cells.
Out: 21
